Each recorded value in this set is attributed to ChEMBL document CHEMBL1132311.

- systemTested: Serine protease 1 (Homo sapiens)
- Sequence (P07477 whole entry): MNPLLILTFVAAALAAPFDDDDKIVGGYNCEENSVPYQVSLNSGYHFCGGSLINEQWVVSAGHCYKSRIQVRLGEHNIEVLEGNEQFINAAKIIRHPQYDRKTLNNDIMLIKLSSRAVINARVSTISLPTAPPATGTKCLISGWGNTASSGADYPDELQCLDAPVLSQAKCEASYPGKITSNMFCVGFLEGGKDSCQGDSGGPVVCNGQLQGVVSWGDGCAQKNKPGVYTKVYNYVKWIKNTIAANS
- measurementProtocol: The binding affinity was measured towards human purified trypsin
readout: Ki (nM)

a = COC(=O)CC1(C(=O)Nc2ccc(-c3ccccc3S(N)(=O)=O)cn2)CC(c2cccc(C(=N)N)c2)=NO1.O=C(O)C(F)(F)F (single isomer, unassigned; (-))
b = COC(=O)CC1(C(=O)Nc2ccc(-c3ccccc3S(N)(=O)=O)nc2)CC(c2cccc(C(=N)N)c2)=NO1 (configuration not stated)
c = COC(=O)CC1(C(=O)Nc2ccc(-c3ccccc3S(C)(=O)=O)cc2)CC(c2cccc(C(=N)N)c2)=NO1 (configuration not stated)
Put the above entries in order of falling Ki. Response format: the labels, sorted as the prompt asks.
b, c, a

P = COC(=O)CC1(C(=O)Nc2ccc(-c3cccc(C(F)(F)F)c3)cc2)CC(c2cccc(C(=N)N)c2)=NO1 (configuration not stated)
Q = COC(=O)CC1(C(=O)Nc2ccc(-c3ccccc3S(N)(=O)=O)cn2)CC(c2cccc(C(=N)N)c2)=NO1.O=C(O)C(F)(F)F (racemic)
Just curious, which one has the larger Ki reading, P or Q ? Mark your answer with the label of the selected entry.
P
